// data source = patent US7728014B2

target: human S1P3 receptor (Homo sapiens); construct: expressed in transfected cells; test: FLIPR Ca+2 response assay, activation of human S1P3 receptor in T24 cells; assay type: cell-based; conditions: T24 cells stably expressing human S1P3; tested 0.61 nM to 10,000 nM; NA = Not Active
Sequence (Q99500 whole entry): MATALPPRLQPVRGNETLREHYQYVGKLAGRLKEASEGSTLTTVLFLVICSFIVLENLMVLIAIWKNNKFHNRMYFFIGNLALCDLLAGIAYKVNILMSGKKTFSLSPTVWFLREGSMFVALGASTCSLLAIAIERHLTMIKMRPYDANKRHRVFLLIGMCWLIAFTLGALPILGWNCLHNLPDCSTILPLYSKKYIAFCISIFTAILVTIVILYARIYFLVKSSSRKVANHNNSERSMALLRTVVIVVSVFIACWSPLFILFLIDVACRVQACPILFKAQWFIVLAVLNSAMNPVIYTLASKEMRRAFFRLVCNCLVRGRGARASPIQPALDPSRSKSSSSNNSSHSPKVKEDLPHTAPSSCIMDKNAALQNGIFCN
Experimental Readout: EC50 (nM)
Give bare numbers, in nM.

// known answers, use as guide
CCCc1ccc(-c2ccc(C(=O)OCC)nc2-c2ccccc2)cc1 :: 3100
CCOC(=O)c1nnc(-c2ccc(CC)cc2)c(-c2ccccc2)n1 :: 1600
COC(=O)c1ccc(-c2ccccc2)c(-c2ccc(C(F)(F)F)cc2)n1 :: 2300

# input for lookup
Ask: # get_value(readout='EC50', item= COC(=O)c1ccc(-c2ccc(C)cc2)c(-c2ccccc2)n1 )
Reply: 580
